Provenance of the data: paper PMC6335172

test_system: wild type human I Ks channel (Kv7.1/KCNE1) (Homo sapiens, UniProt P51787)
assay_explanation: Two-electrode voltage clamp of I Ks channel
Format: cell-based
conditions_used: fitted maximum from dose response, G-V from tail currents, pH 9.0, mean ± SEM
parameter_measured: Max ΔV 0.5 (shift of voltage dependence of activation) (mV)

Consider the worked cases shown below.
compound | test_system | measurement_units | observed_measurement
CC/C=C\C/C=C\C/C=C\C/C=C\C/C=C\CCCC(=O)O [20:5Δ5,8,11,14,17, Eicosapentaenoic acid (5,8,11,14,17)] | wild type human I Ks channel (Kv7.1/KCNE1) (Homo sapiens, UniProt P51787) | mV | −25
CCC=CCC=CCC=CCC=CCC=CCCCCCC(=O)O [22:5Δ7,10,13,16,19, Docosapentaenoic acid (7,10,13,16,19)] | wild type human I Ks channel (Kv7.1/KCNE1) (Homo sapiens, UniProt P51787) | mV | −4
CC/C=C\C/C=C\C/C=C\C/C=C\C/C=C\C/C=C\CCC(=O)O [22:6Δ4,7,10,13,16,19, Docosahexaenoic acid (4,7,10,13,16,19)] | wild type human I Ks channel (Kv7.1/KCNE1) (Homo sapiens, UniProt P51787) | mV | −20.2

I = CCCCC/C=C\C/C=C\CCCCCCCC(=O)O [18:2Δ9,12, Linoleic acid (9,12)]
II = CCC=CCC=CCC=CCCCC(=O)O [14:3Δ5,8,11, Tetradecatrienoic acid (5,8,11)]
Field: lower recorded Max ΔV 0.5 (shift of voltage dependence of activation) (choose I or II ) Identify your selection by its label.
I
(I: −29.8 mV, II: 0.80 mV)

----------
test_system: wild type human I Ks channel (Kv7.1/KCNE1) (Homo sapiens, UniProt P51787)
assay_explanation: Two-electrode voltage clamp of I Ks channel
Assay type: cell-based
conditions_used: fitted maximum from dose response, current at 0 mV, pH 9.0, mean ± SEM
parameter_measured: Max I/I 0 (relative increase in K+ current at 0 mV)

As a guide, the following entries are already answered.
smiles_repr | observed_measurement
CCC=CCC=CCC=CCC=CCC=CCCCCCC(=O)O | 1.6
CCC=CCC=CCC=CCCCCCC(=O)O | 2.1
CCCCC/C=C\C/C=C\CCCCCCCC(=O)O | 3.6

a = CCC=CCC=CCC=CCCCC(=O)O
b = CC/C=C\C/C=C\C/C=C\C/C=C\C/C=C\CCCC(=O)O
Please tell me which of the two, a or b , has the higher reported Max I/I 0 (relative increase in K+ current at 0 mV) value. Write down the label of the entry you select.
b

----------
test_system: wild type human I Ks channel (Kv7.1/KCNE1) (Homo sapiens, UniProt P51787)
assay_explanation: Two-electrode voltage clamp of I Ks channel
Format: cell-based
conditions_used: read-out: K m of G max; Hill fit of dose response, pH 9.0, mean ± SEM
parameter_measured: EC50 (nM)
State just the number; it will be interpreted in nM.

Any idea what EC50 was measured for CCC=CCC=CCC=CCC=CCC=CCCCCCC(=O)O [22:5Δ7,10,13,16,19, Docosapentaenoic acid (7,10,13,16,19)] ?
1200

----------
test_system: wild type human I Ks channel (Kv7.1/KCNE1) (Homo sapiens, UniProt P51787)
assay_explanation: Two-electrode voltage clamp of I Ks channel
Assay type: cell-based
conditions_used: K m of ΔV 0.5, Hill fit of dose response, pH 9.0, mean ± SEM
parameter_measured: EC50 (µM)

1 = CC/C=C\C/C=C\C/C=C\C/C=C\C/C=C\C/C=C\CCC(=O)O
2 = CC/C=C\C/C=C\C/C=C\C/C=C\C/C=C\CCCC(=O)O
Kindly identify the item with the lower EC50 figure among these two: 1 and 2 // return label of chosen record
1
(1: 3.1 µM, 2: 9.8 µM)
